Target: ZAP-70 (Homo sapiens, UniProt P43403)
Sequence (P43403 whole entry): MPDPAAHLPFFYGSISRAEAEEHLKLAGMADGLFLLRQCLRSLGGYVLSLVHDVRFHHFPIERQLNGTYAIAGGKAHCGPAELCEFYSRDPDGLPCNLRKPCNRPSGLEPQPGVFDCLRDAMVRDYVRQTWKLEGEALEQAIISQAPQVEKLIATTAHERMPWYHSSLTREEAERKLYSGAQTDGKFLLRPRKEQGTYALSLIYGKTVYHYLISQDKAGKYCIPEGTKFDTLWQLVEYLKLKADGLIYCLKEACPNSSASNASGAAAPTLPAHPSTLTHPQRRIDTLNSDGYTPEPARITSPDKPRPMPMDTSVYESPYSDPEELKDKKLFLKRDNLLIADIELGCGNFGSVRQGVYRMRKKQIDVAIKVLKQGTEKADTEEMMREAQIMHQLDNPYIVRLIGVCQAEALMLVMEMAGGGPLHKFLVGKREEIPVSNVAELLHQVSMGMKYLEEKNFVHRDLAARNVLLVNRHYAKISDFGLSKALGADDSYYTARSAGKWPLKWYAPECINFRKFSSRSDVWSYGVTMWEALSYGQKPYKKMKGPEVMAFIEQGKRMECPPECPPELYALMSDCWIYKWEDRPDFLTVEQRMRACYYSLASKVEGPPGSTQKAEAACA
Metric: IC50

What measured IC50 goes with NS(=O)(=O)c1cccc2c1C(=O)c1cccc(O)c1C2=O [LLL12] ? > 100 µM

###

pIC50: −log10 of the molar value.
Metric: pIC50

Look up pIC50 with BMX (Homo sapiens, UniProt P51813) for this molecule: NS(=O)(=O)c1cccc2c1C(=O)c1cccc(O)c1C2=O < 4.00

###

Target: FGFR2 (Homo sapiens, UniProt P21802)
Sequence (P21802 22-821): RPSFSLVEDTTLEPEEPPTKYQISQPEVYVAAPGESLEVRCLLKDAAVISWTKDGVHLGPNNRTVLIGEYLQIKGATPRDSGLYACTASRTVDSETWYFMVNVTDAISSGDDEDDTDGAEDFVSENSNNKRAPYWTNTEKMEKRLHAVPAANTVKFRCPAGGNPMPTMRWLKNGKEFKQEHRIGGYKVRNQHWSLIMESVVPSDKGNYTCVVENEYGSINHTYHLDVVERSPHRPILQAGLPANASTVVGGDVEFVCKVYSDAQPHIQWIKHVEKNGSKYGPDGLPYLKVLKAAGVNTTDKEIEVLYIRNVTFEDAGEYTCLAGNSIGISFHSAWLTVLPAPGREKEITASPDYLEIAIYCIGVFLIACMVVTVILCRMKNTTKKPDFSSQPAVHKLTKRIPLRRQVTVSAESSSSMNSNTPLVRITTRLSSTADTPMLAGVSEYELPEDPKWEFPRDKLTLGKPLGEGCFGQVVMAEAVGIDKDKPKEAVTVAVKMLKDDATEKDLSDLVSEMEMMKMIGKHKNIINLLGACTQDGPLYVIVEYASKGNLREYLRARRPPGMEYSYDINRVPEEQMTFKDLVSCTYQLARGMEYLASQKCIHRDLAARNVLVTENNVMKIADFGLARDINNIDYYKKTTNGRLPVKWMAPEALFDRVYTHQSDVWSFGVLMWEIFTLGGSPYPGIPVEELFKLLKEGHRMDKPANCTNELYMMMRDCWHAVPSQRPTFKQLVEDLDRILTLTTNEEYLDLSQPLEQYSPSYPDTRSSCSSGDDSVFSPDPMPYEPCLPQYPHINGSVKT
Metric: IC50

Form entry - test system: FGFR2 (Homo sapiens, UniProt P21802); read-out: IC50; compound: NS(=O)(=O)c1cccc2c1C(=O)c1cccc(O)c1C2=O > 100 µM
